A short record of pIC50 observed with human PTPN1 (1-435) (Homo sapiens (Human)) follows.
Keep in mind that pIC50 stands for -log10 of concentration in molar terms.

// CC(NC(=O)c1ccc2sc(C(F)(F)P(=O)(O)O)c(Br)c2c1)c1ccc2c(c1)OCCO2 (centres unmarked) [Compound 80] : pIC50 value = 5.67

Entry CCC(NC(=O)c1ccc2sc(C(F)(F)P(=O)(O)O)c(Br)c2c1)c1ncnn1C (centres unmarked) [Compound 191] , pIC50 reported as 5.44

According to the records, this molecule O=C(NCCc1c[nH]c2ccccc12)c1ccc2sc(C(F)(F)P(=O)(O)O)c(Br)c2c1 [Compound 153] displays pIC50 of 5.50

In plain terms, O=C(Nc1ccc2sc(C(F)(F)P(=O)(O)O)c(Br)c2c1)C(F)(F)F [Compound 213] has a documented pIC50 of 5.28

Lab book: pIC50 of O=C(NC1(c2cccnc2)CC1)c1ccc2sc(C(F)(F)P(=O)(O)O)c(Br)c2c1 [Compound 180] noted as 4.86

Reported pIC50 ( O=C(NCc1c[nH]nn1)c1ccc2sc(C(F)(F)P(=O)(O)O)c(Br)c2c1 [Compound 140] ) = 5.83

For record O=C(Nc1ccc(OCC2CCCO2)cc1)c1ccc2sc(C(F)(F)P(=O)(O)O)c(Br)c2c1 (centres unmarked) [Compound 26] the listed pIC50 is 5.76

Kindly note the recorded pIC50 for CCC(NC(=O)c1ccc2sc(C(F)(F)P(=O)(O)O)c(Br)c2c1)c1cccnc1 (centres unmarked) [Compound 177] , which is 6.08

Form: molecule = CC(NC(=O)c1ccc2sc(C(F)(F)P(=O)(O)O)c(Br)c2c1)c1nncn1C (centres unmarked) [Compound 175] ; pIC50 = 5.85

Form field pIC50, entry O=C(N[C@H]1CC[C@@H](C(F)(F)F)CC1)c1ccc2sc(C(F)(F)P(=O)(O)O)c(Br)c2c1 [Compound 54] : 5.30

GET /value?item= COc1cccc(NCc2ccc3sc(C(F)(F)P(=O)(O)O)c(Br)c3c2)c1 [Compound 220] &field=pIC50 returns 5.15

----------
- EXPERIMENTAL_TARGET: human PTPN1 (1-435) (Homo sapiens (Human), UniProt P18031)
- Sequence (P18031 whole entry): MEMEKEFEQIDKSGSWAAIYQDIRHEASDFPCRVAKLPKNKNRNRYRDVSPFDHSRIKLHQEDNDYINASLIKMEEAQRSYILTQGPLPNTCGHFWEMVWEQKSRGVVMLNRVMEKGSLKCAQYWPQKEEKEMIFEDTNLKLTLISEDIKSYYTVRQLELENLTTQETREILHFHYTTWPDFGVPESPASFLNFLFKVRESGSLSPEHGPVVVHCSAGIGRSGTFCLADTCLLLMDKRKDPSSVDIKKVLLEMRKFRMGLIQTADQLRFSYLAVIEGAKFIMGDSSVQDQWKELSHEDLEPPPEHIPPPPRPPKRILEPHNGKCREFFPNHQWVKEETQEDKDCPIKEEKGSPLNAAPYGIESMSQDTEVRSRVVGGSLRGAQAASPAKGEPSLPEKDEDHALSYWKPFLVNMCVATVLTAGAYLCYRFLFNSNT
Consider the cut-off 1 µM. If the recorded IC50 is strictly smaller, the label is Fulfilled; if not, the label is Not fulfilled.

I wonder whether COCCN(CCOC)C(=O)c1ccc2sc(C(F)(F)P(=O)(O)O)c(Br)c2c1 has IC50 below 1 µM. Can you tell?
Fulfilled

I wonder whether O=C(NC(c1ccc(F)cc1)C(F)F)c1ccc2sc(C(F)(F)P(=O)(O)O)c(Br)c2c1 (stereo not shown) has IC50 below 1 µM. Can you tell?
Not fulfilled

IC50 under 1 µM? Item: CC(C)OCCNC(=O)c1ccc2sc(C(F)(F)P(=O)(O)O)c(Br)c2c1
Not fulfilled

Consider the compound CC1CCCC(NC(=O)c2ccc3sc(C(F)(F)P(=O)(O)O)c(Br)c3c2)C1 (stereo not shown) . Is its IC50 strictly less than 1 µM?
Not fulfilled

Here's an entry: NC(=O)c1cc(OCCCc2cncs2)c2sc(C(F)(F)P(=O)(O)O)c(Br)c2c1 . Is its IC50 below 1 µM?
Fulfilled

hey, is IC50 for CNS(=O)(=O)c1cc(OCCCC(F)(F)F)c2sc(C(F)(F)P(=O)(O)O)c(Br)c2c1 lower than 1 µM or not?
Fulfilled

Strictly below 1 µM: is that where IC50 of N#Cc1ccc2c(Br)c(C(F)(F)P(=O)(O)O)sc2c1 sits?
Not fulfilled
